pIC50: −log10 of the molar value.
Literature pIC50 values, system: UniProt P04150.

Some entries whose results are on file:
| compound | pIC50 |
| --- | --- |
| O=C1C=C2CCCc3cc(O)ccc3C2(Cc2ccccc2)CC1 (centres unmarked) | 6.00 to 7.00 |
| CC(=O)N1CCC(C2SCCNc3c2c(-c2ccccn2)nn3C)CC1 (centres unmarked) | < 5.00 |
| CC[C@@]12CC[C@](O)(COC)C[C@@H]1CCOc1cc3c(cnn3-c3ccncc3)cc12 | > 7.00 |
| N#CC[C@]12CC[C@@](O)(C(F)(F)F)C[C@@H]1CCCc1cc3c(cnn3-c3ccc(F)cc3)cc12 (single isomer, unassigned) | > 7.00 |
| Cn1nc(-c2ccccn2)c2c1NCCSC2c1ccc(-c2cnn(CC(N)=O)c2)cc1Cl (centres unmarked) | 6.00 to 7.00 |
| C[C@H](NC(=O)C(C)(F)F)[C@H](Oc1ccc2c(cnn2-c2cccc(C(=O)NCc3n[nH]c4ccccc34)c2)c1)c1ccccc1 | 7.37 |
| Cc1ncccc1C(=O)N1CCC(C2SCCNc3c2c(-c2ccccn2)nn3C)CC1 (centres unmarked) | < 5.00 |

Q) # value lookup — system UniProt P04150, readout pIC50, item Cc1cc(Cl)ccc1[C@@H]1S[C@H](CCO)CNc2c1c(C)nn2C (single isomer, unassigned)
A) 6.00 to 7.00

----------
pIC50: −log10 of the molar value.
Literature pIC50 values, system: Glucocorticoid receptor (Homo sapiens, UniProt P04150).

Some entries whose results are on file:
| compound | test_value |
| --- | --- |
| CC[C@]12CC[C@](C)(O)C[C@H]1CCCc1cc3c(cnn3-c3ccc(F)cc3)cc12 | > 7.00 |
| Cc1cc(C#CCO)ccc1[C@H]1SC[C@@H](C)Nc2c1c(-c1ccccn1)nn2C (single isomer, unassigned) | 6.00 to 7.00 |
| CC[C@]12CC[C@](O)(COC)C[C@@H]1CCCc1cc3c(cnn3-c3ccc(F)cc3)cc12 (single isomer, unassigned) | 6.00 to 7.00 |
| CC[C@]12CC[C@@](O)(c3ccccc3)C[C@H]1CCCc1cc(C(=O)Nc3cccnc3C)ccc12 (single isomer, unassigned) | 6.00 to 7.00 |
| CC[C@@]12CC[C@](O)(COC)C[C@@H]1CCCc1cc3c(cnn3-c3ccncc3)cc12 (single isomer, unassigned) | > 7.00 |

Q) Fill in the blank: the reported pIC50 of CCC[C@]1(O)CC[C@]2(CC)c3ccc(C(=O)Nc4cccnc4C)cc3OCC[C@@H]2C1 (single isomer, unassigned) is ____.
A) 6.00 to 7.00

Q) Fill in the blank: the reported pIC50 of "CC[C@@]1(O)CC[C@@]2(CC)c3ccc(C(=O)Nc4cccnc4C)cc3COC[C@H]2C1" is ____.
A) 6.00 to 7.00

Q) Fill in the blank: the reported pIC50 of "Cc1cc(Cl)ccc1[C@@H]1SC(C)(C)CNc2c1c(C1CC1)nn2C" is ____.
A) 6.00 to 7.00

Q) Fill in the blank: the reported pIC50 of CC[C@@]12C[C@@H](O)[C@](O)(c3ccccc3)C[C@@H]1CCCc1cc(C(=O)Nc3cccnc3C)ccc12 (single isomer, unassigned) is ____.
A) 5.00 to 6.00

Q) Fill in the blank: the reported pIC50 of COc1ccccc1CCC(=O)NCC(c1ccccc1)C(c1ccccc1)c1ccccc1 (centres unmarked) is ____.
A) 7.24

----------
Literature IC50 values, system: UniProt P04150.

Some entries whose results are on file:
| compound | IC50 |
| --- | --- |
| COC[C@@]1(O)CC[C@@]2(Cc3ccccc3)c3ccc(C(=O)Nc4cccnc4C)cc3CCC[C@H]2C1 (racemic) | < 100 nM |
| Cc1cc(Br)ccc1C1SC(C)(C)CNc2c1c(C)nn2C (stereo not drawn) | < 100 nM |
| Cc1ccc(C(=O)NCC(c2ccccc2)C(c2ccccc2)c2ccccc2)s1 (stereo not drawn) | 50 nM |
| CC[C@@]1(O)CC[C@@]2(Cc3ccccc3)c3ccc(C(=O)NCc4cccnc4C)cc3CCC[C@H]2C1 | < 100 nM |
| Cc1ncccc1NC(=O)c1ccc2c(c1)CN(C)C[C@H]1CC(=O)CC[C@@]21Cc1ccccc1 | 1000 to 10000 nM |
| Cc1ccc(C(=O)Nc2cccnc2C)cc1C1SC(C)(C)CNc2c1c(C1CC1)nn2C (stereo not drawn) | > 10000 nM |

// switching to the query compound
Q) # value lookup — system UniProt P04150, readout IC50, item "C[C@H](NC(=O)C(C)(F)F)[C@H](Oc1ccc2c(cnn2-c2cccc(C(=O)N3CCC[C@@H]3CO)c2)c1)c1ccccc1"
A) 6.88 nM

----------
Literature IC50 values, system: Glucocorticoid receptor (Homo sapiens, UniProt P04150).

| compound | test_value |
| --- | --- |
| CCC[C@]1(O)CC[C@]2(CC)c3ccc(-c4nc5ccccc5[nH]4)cc3CCC[C@@H]2C1 (single isomer, unassigned) | 1000 to 10000 nM |
| Cn1nc(-c2ccccn2)c2c1NCCSC2c1ccc(-c2ccncc2C#N)cc1Cl (stereo not shown) | 100 to 1000 nM |
| Cc1cc(Cl)ccc1[C@H]1S[C@@H](CCO)CNc2c1c(-c1ccccn1)nn2C (single isomer, unassigned) | 1000 to 10000 nM |
| O=C(Cc1ccccc1)NCC(c1ccc(Cl)cc1)C(c1ccccc1)c1ccccc1 (stereo not shown) | 72 nM |
| CC[C@]12CC(=O)[C@@](O)(C(F)(F)F)C[C@@H]1CCCc1cc3c(cnn3-c3ccc(F)cc3)cc12 (single isomer, unassigned) | 100 to 1000 nM |

Q) # value lookup — system Glucocorticoid receptor (Homo sapiens, UniProt P04150), readout IC50, item Cc1cc(F)ccc1C1SC(C)(C)CNc2c1c(C1CC1)nn2C (stereo not shown)
A) < 100 nM

Q) # value lookup — system Glucocorticoid receptor (Homo sapiens, UniProt P04150), readout IC50, item Cc1cc(C(=O)Nc2cccnc2C)ccc1[C@H]1SC[C@@H](C)Nc2c1c(-c1ccncn1)nn2C (single isomer, unassigned)
A) 1000 to 10000 nM

----------
Literature IC50 values, system: Glucocorticoid receptor (Homo sapiens).

Some entries whose results are on file:
| compound | IC50 |
| --- | --- |
| Cc1c(Br)cccc1C1SC(C)(C)CNc2c1c(C1CC1)nn2C (centres unmarked) | 100 to 1000 nM |
| CCOC[C@]1(O)CC[C@]2(Cc3ccccn3)c3cc4cnn(-c5ccc(F)cc5)c4cc3CCC[C@@H]2C1 | < 100 nM |
| CC[C@@]12CC[C@](O)(COC)C[C@@H]1CCCc1cc3[nH]ncc3cc12 (racemic) | < 100 nM |
| CC[C@@]12CC[C@@](C)(O)C[C@@H]1CCCc1cc(C(=O)Nc3cccnc3C)ccc12 (single isomer, unassigned) | < 100 nM |

Q) # value lookup — system Glucocorticoid receptor (Homo sapiens), readout IC50, item "CC[C@@]12CC[C@](O)(COC)C[C@@H]1CCOc1cc3c(cnn3-c3ccnc(C(F)(F)F)c3)cc12"
A) < 100 nM

Q) # value lookup — system Glucocorticoid receptor (Homo sapiens), readout IC50, item Cc1nn(C)c2c1C(c1ccc(Cl)cc1Cl)SC1(CCCC1)CN2 (centres unmarked)
A) < 100 nM

Q) # value lookup — system Glucocorticoid receptor (Homo sapiens), readout IC50, item Cc1ncccc1NC(=O)c1ccc2c(c1)NC(=O)C[C@H]1CC(O)(C(F)(F)F)CC[C@@]21Cc1ccccc1 (some centres unmarked)
A) > 10000 nM

Q) # value lookup — system Glucocorticoid receptor (Homo sapiens), readout IC50, item Cc1cc(Br)ccc1C1CCC(=O)Nc2c1c(C)nn2C (centres unmarked)
A) 1000 to 10000 nM

----------
Literature pIC50 values, system: Glucocorticoid receptor (Homo sapiens, UniProt P04150).
pIC50: −log10 of the molar value.

| compound | pIC50 |
| --- | --- |
| CCn1nc(-c2ccccn2)c2c1N[C@@H](C)CS[C@@H]2c1ccc(C#CCO)cc1C (single isomer, unassigned) | 5.00 to 6.00 |
| CC[C@]12CC[C@](C)(O)C[C@H]1CCCc1cc(C(=O)Nc3cccnc3C)ccc12 (single isomer, unassigned) | 5.00 to 6.00 |
| COc1cc(Cl)ccc1C1SC(C)(C)CNc2c1c(C1CC1)nn2C (stereo not drawn) | 6.00 to 7.00 |
| COc1ccccc1CCC(=O)NCC(c1ccc(Cl)cc1)C(c1ccccc1)c1ccccc1 (stereo not drawn) | 7.24 |
| CCOC[C@@]1(O)CC[C@@]2(Cc3ccccc3)c3ccc(C(=O)Nc4cccnc4C)cc3CCC[C@H]2C1 (racemic) | > 7.00 |
| CC[C@@]12CC[C@](O)(C(F)(F)F)C[C@H]1CCC(=O)c1cc3c(cnn3-c3ccc(F)cc3)cc12 | > 7.00 |
| CCCOC[C@@]1(O)CC[C@@]2(Cc3ccccc3)c3ccc(C(=O)Nc4cccnc4C)cc3CCC[C@H]2C1 | > 7.00 |
| CC[C@@]12CC[C@](O)(C(F)(F)F)C=C1CCCc1cc3c(cnn3-c3ccc(F)cc3)cc12 (single isomer, unassigned) | > 7.00 |
| CCn1nc(-c2ccccn2)c2c1NCCSC2c1ccc(C(=O)Nc2onc(C)c2C#N)cc1C (stereo not drawn) | 6.00 to 7.00 |
| CC[C@]12CC[C@@](O)(COC)C[C@H]1CCOc1cc3c(cnn3-c3ccnc(OC)c3)cc12 | 5.00 to 6.00 |

Q) # value lookup — system Glucocorticoid receptor (Homo sapiens, UniProt P04150), readout pIC50, item Cn1nc(-c2ccccn2)c2c1NCCSC2c1ccc(-c2cnc3nccnc3c2)cc1Cl (stereo not drawn)
A) 5.00 to 6.00

Q) # value lookup — system Glucocorticoid receptor (Homo sapiens, UniProt P04150), readout pIC50, item "Cc1ncccc1NC(=O)c1ccc2c(c1)CCC[C@H]1C[C@@](O)(CC#N)CC[C@@]21Cc1ccccc1"
A) > 7.00

Q) # value lookup — system Glucocorticoid receptor (Homo sapiens, UniProt P04150), readout pIC50, item Cc1ccc(S(=O)(=O)NCC(c2ccccc2)C(c2ccccc2)c2ccccc2)cc1 (stereo not drawn)
A) 6.76

Q) # value lookup — system Glucocorticoid receptor (Homo sapiens, UniProt P04150), readout pIC50, item CCC[C@@]1(O)CC[C@@]2(CC)c3ccc(C(=O)Nc4cccnc4C)cc3C=CC[C@H]2C1 (single isomer, unassigned)
A) 6.00 to 7.00

Q) # value lookup — system Glucocorticoid receptor (Homo sapiens, UniProt P04150), readout pIC50, item CCC[C@@]1(O)CC[C@@]2(CC)c3ccc(C(=O)Nc4cccnc4N)cc3CCC[C@H]2C1 (racemic)
A) > 7.00
